- target.system: T1, huNav157 chimera 14 on cells (without β subunits) (human (huNav1.7α/huNav1.5α chimera))
- T1 construct: also called HEK FlpIn Nav157ch14
- assay.name: binding FACS, HEK FlpIn cells
pEC50: −log10 of the molar value.
Listing: pEC50 of selected binders
measurement.type: pEC50

[[record]]
binder = "F010301635 (VHH, also called F0103275B05(L11V, R39Q, T83R, V89L)) VHH: EVQLVESGGGVVQPGGSLRLSCAASGSIFNINSMAWYRQAPGKQRELVASSTNGGSTNYADSVKGRFTISRDNAKRVYLQMNSLRPEDTALYYCNALLQPSIYDISRTYWGQGTLVTVSS"
quantitative_result = 7.80

[[record]]
binder = "F0103275B05 (VHH, also called F0103275B05 (parental)-FLAG-HIS6) VHH: EVQLVESGGGLVQPGGSLRLSCAASGSIFNINSMAWYRRAPGKQRELVASSTNGGSTNYADSVKGRFTISRDNAKRVYLQMNSLTPEDTAVYYCNALLQPSIYDISRTYWGQGTLVTVSS"
quantitative_result = 7.92

[[record]]
binder = "F010301641 (VHH, also called F0103275B05(R76_V78insT)(L11V, R76N, T83R, V89L)) VHH: EVQLVESGGGVVQPGGSLRLSCAASGSIFNINSMAWYRRAPGKQRELVASSTNGGSTNYADSVKGRFTISRDNAKNTVYLQMNSLRPEDTALYYCNALLQPSIYDISRTYWGQGTLVTVSS"
quantitative_result = 6.51

[[record]]
binder = "F010301638 (VHH, also called F0103275B05(L11V, R39Q, R76N, T83R, V89L)) VHH: EVQLVESGGGVVQPGGSLRLSCAASGSIFNINSMAWYRQAPGKQRELVASSTNGGSTNYADSVKGRFTISRDNAKNVYLQMNSLRPEDTALYYCNALLQPSIYDISRTYWGQGTLVTVSS"
quantitative_result = 7.74

